FYI, the data here is from paper PMC12143593.

# EXPERIMENTAL TARGET: EPE chimera (EcSSB with PfSSB IDL) (Escherichia coli / Plasmodium falciparum (IDL)) (UniProt P0AGE0)
# ASSAY NAME: fluorescence polarization
# TEST SETTINGS: 20 mM Tris-acetate pH 8, 50 mM K-glutamate, 10 mM Mg-acetate, 25 C; 10 nM labeled oligo, SSB concentrations as tetramers
PARAMETER: Kd

1) TTTTTTTTTTTTTTTTTTTTTTTTTTTTTTTTTTTTTTTTTTTTTTTTTTTTTTTTTTTTTTTTTTTTTTTTTTTTTTT [dT79] : < 10 nM

###

# EXPERIMENTAL TARGET: EHE chimera (EcSSB with hSSB1 IDL) (Escherichia coli / human (IDL)) (UniProt P0AGE0)
# ASSAY NAME: fluorescence polarization
# TEST SETTINGS: n = 2.3; 20 mM Tris-acetate pH 8, 50 mM K-glutamate, 10 mM Mg-acetate, 25 C; 10 nM labeled oligo, SSB concentrations as tetramers
pKd: −log10 of the molar value.
PARAMETER: pKd

1. TTTTTTTTTTTTTTTTTTTTTTTTTTTTTTTTTTTTTTTTTTTTTTTTTTTTTTTTTTTTTTTTTTTTTTTTTTTTTTT [dT79] : > 8.00
